Data credit: ChEMBL document CHEMBL6078678

assay: Aqueous solubility of compound in PBS at pH 7.4 incubated for 4 hrs by UHPLC-DAD analysis; assay type: physicochemical
Quantity kind: solubility at 4 h (µM)
Please state the figure in µM; there is no need to write the unit.

query: Endpoint output: solubility at 4 h of CCc1ccc(NCCCOc2cc(C)nc3ccc(Cl)cc23)cc1 . Value?
result: 0.06

###

experiment: Cytotoxicity against African green monkey Vero cells assessed as reduction in cell viability incubated for 72 hrs by neutral red uptake method; type: toxicity, cell-based; conditions: chlorocebus sabaeus, Vero cells
CC50 at 72 h: recorded values
State just the number; it will be interpreted in µM.

In the examples that follow, each entry is paired with its recorded CC50 at 72 h.
COc1ccc2nc(C)cc(OCCCNc3ccc(I)cc3)c2c1 = 7.5
COc1ccc2nc(C)cc(OCCCNc3ccc(Br)cc3)c2c1 = 12.8

Shift focus to the following entry.
query: Name the recorded CC50 at 72 h for CCc1ccc(NCCCOc2cc(CC)nc3ccc(Br)cc23)cc1 .
result: 9.1
